Readings of kcat for the listed proteins
# Substrate: CCCCCCCCCCC1=C(C)C(=O)C(OC)=C(OC)C1=O
# TEST: purified protein
# Type: biochemical, Thiocapsa roseopersicina
# CONDITION_INFO: 200 µM sulfide, 50 mM Tris-HCl pH 8.0, 25 °C, anaerobic

PROTEIN: SqrF CTD (Thiocapsa roseopersicina) (protein, C-terminal alpha-helix deletion, stop codons after Thr356; N-terminal StrepII tag, expressed in T. roseopersicina FOQRON) MHRITIVGSGFAGLTAVQSIRRTAPDAEITLVSNKAEFIYYPGLIWVPCGIRSGEDLRIDLRPFFKRMRVRHLAGEATGLSPDGRTLETTAGPVENDGLVIGSGGRFIKKLPGIEHAITPCEGIAAAEAIRDRVKAMDGGSIAMGFAGNPNEPSSMRGGPIFEFIFGMDSQLRKEGRRDRFRLHFFTPAERPGNRLGPKAVDGILAEMKRRGIETHLGHKLKSFSESKVTTEAGEFDADLILFMPGMTGNTWFDNTDLPRSPGGLLQADAHCRVPGYERVYVAGDSGSFPGPDWMPKQAHMADLQARAAVKNLLAELQGRAPSETFKVELVCIVDANDTGMLVARTEKNNWVLPST
kcat: 4.9 s⁻¹
--
PROTEIN: TrSqrF; SqrF WT (Thiocapsa roseopersicina) (protein) MHRITIVGSGFAGLTAVQSIRRTAPDAEITLVSNKAEFIYYPGLIWVPCGIRSGEDLRIDLRPFFKRMRVRHLAGEATGLSPDGRTLETTAGPVENDGLVIGSGGRFIKKLPGIEHAITPCEGIAAAEAIRDRVKAMDGGSIAMGFAGNPNEPSSMRGGPIFEFIFGMDSQLRKEGRRDRFRLHFFTPAERPGNRLGPKAVDGILAEMKRRGIETHLGHKLKSFSESKVTTEAGEFDADLILFMPGMTGNTWFDNTDLPRSPGGLLQADAHCRVPGYERVYVAGDSGSFPGPDWMPKQAHMADLQARAAVKNLLAELQGRAPSETFKVELVCIVDANDTGMLVARTEKNNWVLPSTRFFHWMKLGFEWWYLRPYR
kcat: 8.37 s⁻¹
--
PROTEIN: TrSqrF; SqrF WT (Thiocapsa roseopersicina; F366A) (protein) MHRITIVGSGFAGLTAVQSIRRTAPDAEITLVSNKAEFIYYPGLIWVPCGIRSGEDLRIDLRPFFKRMRVRHLAGEATGLSPDGRTLETTAGPVENDGLVIGSGGRFIKKLPGIEHAITPCEGIAAAEAIRDRVKAMDGGSIAMGFAGNPNEPSSMRGGPIFEFIFGMDSQLRKEGRRDRFRLHFFTPAERPGNRLGPKAVDGILAEMKRRGIETHLGHKLKSFSESKVTTEAGEFDADLILFMPGMTGNTWFDNTDLPRSPGGLLQADAHCRVPGYERVYVAGDSGSFPGPDWMPKQAHMADLQARAAVKNLLAELQGRAPSETFKVELVCIVDANDTGMLVARTEKNNWVLPSTRFFHWMKLGAEWWYLRPYR
kcat: 1.97 s⁻¹
--
PROTEIN: TrSqrF; SqrF WT (Thiocapsa roseopersicina; F366Y) (protein) MHRITIVGSGFAGLTAVQSIRRTAPDAEITLVSNKAEFIYYPGLIWVPCGIRSGEDLRIDLRPFFKRMRVRHLAGEATGLSPDGRTLETTAGPVENDGLVIGSGGRFIKKLPGIEHAITPCEGIAAAEAIRDRVKAMDGGSIAMGFAGNPNEPSSMRGGPIFEFIFGMDSQLRKEGRRDRFRLHFFTPAERPGNRLGPKAVDGILAEMKRRGIETHLGHKLKSFSESKVTTEAGEFDADLILFMPGMTGNTWFDNTDLPRSPGGLLQADAHCRVPGYERVYVAGDSGSFPGPDWMPKQAHMADLQARAAVKNLLAELQGRAPSETFKVELVCIVDANDTGMLVARTEKNNWVLPSTRFFHWMKLGYEWWYLRPYR
kcat: 3.17 s⁻¹
--
PROTEIN: TrSqrF; SqrF WT (Thiocapsa roseopersicina; V331A) (protein) MHRITIVGSGFAGLTAVQSIRRTAPDAEITLVSNKAEFIYYPGLIWVPCGIRSGEDLRIDLRPFFKRMRVRHLAGEATGLSPDGRTLETTAGPVENDGLVIGSGGRFIKKLPGIEHAITPCEGIAAAEAIRDRVKAMDGGSIAMGFAGNPNEPSSMRGGPIFEFIFGMDSQLRKEGRRDRFRLHFFTPAERPGNRLGPKAVDGILAEMKRRGIETHLGHKLKSFSESKVTTEAGEFDADLILFMPGMTGNTWFDNTDLPRSPGGLLQADAHCRVPGYERVYVAGDSGSFPGPDWMPKQAHMADLQARAAVKNLLAELQGRAPSETFKVELACIVDANDTGMLVARTEKNNWVLPSTRFFHWMKLGFEWWYLRPYR
kcat: 2.47 s⁻¹

These entries and their values trace back to paper PMC9666304.
